Where these numbers come from: patent US20110262454A1

STUDY SYSTEM: T1, human CD38 on cells (human, UniProt P28907 1-300)
T1 construct: whole, on cells; also called CD38-expressing 300-19 cells; CD38-positive Ramos lymphoma cells
PROTOCOL SUMMARY: apparent KD, FACS titration on Ramos cells, non-linear regression

| BINDER | Kd |
| --- | --- |
| 38SB19 murine anti-CD38 monoclonal antibody (antibody, V domains shown, also called mu38SB19; murine 38SB19) VH: QVQLQQSGAELARPGTSVKLSCKASGYTFTDYWMQWVKQRPGQGLEWIGTIYPGDGDTGYAQKFKGKATLTADKSSKTVYMHLSSLASEDSAVYYCARGDYYGSNSLDYWGQGTSVTVSS VL: DIVMAQSHKFMSTSVGDRVSITCKASQDVSTVVAWYQQKPGQSPKRLIYSASYRYIGVPDRFTGSGSGTDFTFTISSVQAEDLAVYYCQQHYSPPYTFGGGTKLEIKR | 0.12 nM |
| 38SB30 murine anti-CD38 monoclonal antibody (antibody, V domains shown, Murine hybridoma antibody; also called hybridoma PTA-7666) VH: QVQLQQSGPELVRPGASVKISCKTSGYAFSGSWMNWVKQRPGQGLEWIGRIYPGDGDIIYNGNFRDKVTLSADKSSNTAYMQLSSLTSVDSAVYFCSRWGTFTPSFDYWGQGTTLTVSS VL: DIVMTQSHKFLSTSVGDRVSITCKASQDVVTAVAWFQQKPGQSPKLLIYSASHRYTGVPDRFTGSGSGTDFTFTIISVQAEDLAVYYCQQHYTTPTTFGGGTKLDFRR | 0.16 nM |
| 38SB13 murine anti-CD38 monoclonal antibody (antibody, V domains shown, Murine hybridoma antibody purified by Protein A or G; also called hybridoma PTA-7667) VH: QIQLVQSGPELKKPGETVKISCKASGYTLTSYGMNWVKQAPGKGLKWMGWINTYTGEPTYADDFKGRFAFSLETSASTAFLQINNLKNEDTATYFCVRRGFAYWGQGTLVTVSA VL: NIVLTQSPASLAVSLGQRATISCRASESVEIYGNGFMNWFQQKPGQPPKLLIYRASNLESGIPARFSGSGSRTEFTLTIDPVEADDVATYYCQQINEDPFTFGSGTKLEIKR | 0.1 nM |
